Assay: Pharmacokinetics of scoparone, geniposide and rhein in rat plasma after oral administration of the herbal formula Yin-Chen-Hao-Tang (UPLC-MS/MS)
Assay type: in vivo, Male Sprague Dawley rats
Conditions: male, Sprague Dawley, in vivo, po; rat plasma, YCHT 3 g/kg p.o., mean ± S.D., n = 6; read-out: t1/2 (elimination half-life)
Protocol: All samples were subjected to chromatographic separation using the Shimadzu UPLC system with an Acquity UPLC BEH C18 column (1.7 µm, 100 mm × 2.1 mm) (Waters Corp., Milford, MA, USA). […] MRM transitions were scoparone (m/z 207 → 151), geniposide (m/z 406 → 227), rhein (m/z 283 → 240) and carbamazepine (m/z 237 → 194) for quantitation. […] The pharmacokinetic parameters were calculated using the pharmacokinetic software WinNonlin Standard Edition, version 1.1 (Scientific Consulting Inc., Apex, NC, USA). […]
endpoint: half-life
Lab note: write values as number then unit, every time.

In: // query half-life value for entry COC(=O)C1=CO[C@@H](O[C@@H]2O[C@H](CO)[C@@H](O)[C@H](O)[C@H]2O)[C@@H]2C(CO)=CC[C@H]12 [Geniposide, geniposide]
Out: 1.43 h

---

Test: Pharmacokinetics of scoparone, geniposide and rhein in rat plasma after oral administration of the herbal formula Yin-Chen-Hao-Tang (UPLC-MS/MS)
Format: in vivo, Male Sprague Dawley rats
Details: male, Sprague Dawley, in vivo, po; rat plasma, YCHT 1 g/kg p.o., mean ± S.D., n = 6; read-out: Cmax
endpoint: Cmax (ng/mL)
Report as a plain number; the unit ng/mL is understood.

In: // query Cmax value for entry COC(=O)C1=CO[C@@H](O[C@@H]2O[C@H](CO)[C@@H](O)[C@H](O)[C@H]2O)[C@@H]2C(CO)=CC[C@H]12 [Geniposide, geniposide]
Out: 145

---

Test: Pharmacokinetics of scoparone, geniposide and rhein in rat plasma after oral administration of the herbal formula Yin-Chen-Hao-Tang (UPLC-MS/MS)
Format: in vivo, Male Sprague Dawley rats
Conditions: male, Sprague Dawley, rat, in vivo, po, 1 g/kg
Measured Cmax of individual entries
Report as a plain number; the unit ng/mL is understood.

O=C(O)c1cc(O)c2c(c1)C(=O)c1cccc(O)c1C2=O [Rhein, rhein]; 311

Continue with the compound presented below.
In: // query Cmax value for entry COc1cc2ccc(=O)oc2cc1OC [Scoparone, 6,7-dimethoxycoumarin]
Out: 18

---

Assay: Pharmacokinetics of scoparone, geniposide and rhein in rat plasma after oral administration of the herbal formula Yin-Chen-Hao-Tang (UPLC-MS/MS)
Format: in vivo, Male Sprague Dawley rats
Details: male, Sprague Dawley, rat, in vivo, po, 3 g/kg
endpoint: half-life (min)
Report as a plain number; the unit min is understood.

COc1cc2ccc(=O)oc2cc1OC [Scoparone, 6,7-dimethoxycoumarin]; 69

In: // query half-life value for entry O=C(O)c1cc(O)c2c(c1)C(=O)c1cccc(O)c1C2=O [Rhein, rhein]
Out: 104

---

Test: Pharmacokinetics of scoparone, geniposide and rhein in rat plasma after oral administration of the herbal formula Yin-Chen-Hao-Tang (UPLC-MS/MS)
Type: in vivo, Male Sprague Dawley rats
Settings: male, Sprague Dawley, rat, in vivo, po, 3 g/kg
endpoint: AUC (ng·h/mL)
Report as a plain number; the unit ng·h/mL is understood.

COc1cc2ccc(=O)oc2cc1OC; 119

Continue with the molecule presented below.
In: // query AUC value for entry O=C(O)c1cc(O)c2c(c1)C(=O)c1cccc(O)c1C2=O
Out: 3310
